# Target or test system: galectin-7 (Homo sapiens, UniProt P47929)
# Sequence (P47929 whole entry): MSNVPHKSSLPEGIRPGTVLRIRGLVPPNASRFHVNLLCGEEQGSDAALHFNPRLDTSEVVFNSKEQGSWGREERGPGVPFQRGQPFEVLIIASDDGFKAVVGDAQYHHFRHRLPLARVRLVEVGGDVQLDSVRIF
Measurement name: pKd
Keep in mind that pKd stands for -log10 of concentration in molar terms.

Compound structure | pKd
OC[C@H]1O[C@@H](S[C@@H]2O[C@H](CO)[C@H](O)[C@H](n3cc(-c4cccc(F)c4)nn3)[C@H]2O)[C@H](O)[C@@H](n2cc(-c3cccc(F)c3)nn2)[C@H]1O | 4.42

Pending compound:
Q: State the recorded pKd for this entry: OC[C@H]1O[C@@H](S[C@@H]2O[C@H](CO)[C@H](O)[C@H](n3cc(-c4cccc(F)c4)nn3)[C@H]2O)[C@H](O)[C@@H](O)[C@H]1O
A: 4.06
